- System: Klebsiella pneumoniae (ATCC 33495)
- Format: cell-based
- MEASUREMENT SETUP: ATCC 33495
Square brackets hold non-standard residues; d marks the D form. Peptide text beside a SMILES is read from it. Tle = CC(C)(C)[C@H](N)C(=O)O; Orn = NCCC[C@H](N)C(=O)O; Abu = CC[C@H](N)C(=O)O
VALUE KIND: MIC K. pneumonia ATCC 33495 (µg/mL)
The reply should be a number in µg/mL, with the unit left off.

Below are worked cases with known answers.
>>> value_reported("CC[C@@H]1NC(=O)[C@@H]2CCCN2C(=O)[C@@H](CCCNC(=N)N)NC(=O)[C@H](CC(C)C)NC(=O)[C@H](CCCN)NC(=O)[C@H](CC)NC(=O)[C@@H]2CCCN2C(=O)[C@@H](Cc2ccccc2)NC(=O)[C@H](CC(C)C)NC(=O)[C@H](CCCNC(=N)N)NC1=O [Peptide 18] (cyclo([Abu][Orn]L[dR]P[Abu]RL[dF]P))")
64
>>> value_reported("CC(C)C[C@@H]1NC(=O)[C@H](CCCN)NC(=O)[C@H](C(C)C)NC(=O)[C@@H]2CCCN2C(=O)[C@@H](Cc2ccccc2)NC(=O)[C@H](CC(C)C)NC(=O)[C@H](CCCN)NC(=O)[C@H](C(C)C)NC(=O)[C@H](Cc2c[nH]c3ccccc23)NC(=O)[C@@H](CCCNC(=N)N)NC1=O [Peptide 8] (cyclo(L[dF]PV[Orn]L[dR]WV[Orn]))")
16
>>> value_reported("CC(C)C[C@@H]1NC(=O)[C@H](CCCN)NC(=O)[C@H](C(C)(C)C)NC(=O)[C@@H]2CCCN2C(=O)[C@@H](Cc2ccccc2)NC(=O)[C@H](CC(C)C)NC(=O)[C@H](CCCN)NC(=O)[C@H](C(C)(C)C)NC(=O)[C@@H]2CCCN2C(=O)[C@@H](CCCNC(=N)N)NC1=O [Peptide 19] (cyclo(L[dF]P[Tle][Orn]L[dR]P[Tle][Orn]))")
32
>>> value_reported("CC(C)C[C@@H]1NC(=O)[C@H](CCCN)NC(=O)[C@H](C(C)C)NC(=O)[C@@H]2CCCN2C(=O)[C@@H](Cc2ccccc2)NC(=O)[C@H](CC(C)C)NC(=O)[C@H](CCCN)NC(=O)[C@H](C(C)C)NC(=O)[C@@H]2CCCN2C(=O)[C@@H](Cc2ccccc2)NC1=O [GS, gramicidin S] (cyclo(V[Orn]L[dF]PV[Orn]L[dF]P))")
128

Now let's try a different one.
q: Fill blank: measured MIC K. pneumonia ATCC 33495 of the compound CC(C)C[C@@H]1NC(=O)[C@H](CCCN)NC(=O)[C@H](C(C)C)NC(=O)[C@@H]2CCCN2C(=O)[C@@H](Cc2ccccc2)NC(=O)[C@H](CC(C)C)NC(=O)[C@H](CCCN)NC(=O)[C@H](C(C)C)NC(=O)[C@@H]2CCCN2C(=O)[C@@H](CCCNC(=N)N)NC1=O [Peptide 9] (cyclo(L[dF]PV[Orn]L[dR]PV[Orn])) is ____.
a: 16

----------
- Test system: Pseudomonas aeruginosa (ATCC 27853)
- Assay type: cell-based
- MEASUREMENT SETUP: broth microdilution in CAMHB, 5 × 10^4 CFU/well, 1% DMSO, 37 °C, 16–20 h, 256 to 0.125 µg/mL, triplicate (n = 3)
- Description: The antibacterial efficacy of peptides was assessed using the broth microdilution method in accordance with Clinical and Laboratory Standards Institute (CLSI) guidelines (M07-A10, 2015 [33]). The minimum inhibitory concentrations (MICs) were determined against Escherichia coli (ATCC 25922), Klebsiella pneumoniae (ATCC 33495), Pseudomonas aeruginosa (ATCC 27853), Acinetobacter baumannii (ATCC 19606), and Staphylococcus aureus (ATCC 29213 and ATCC USA300). […]
Square brackets hold non-standard residues; d marks the D form. Peptide text beside a SMILES is read from it. Tle = CC(C)(C)[C@H](N)C(=O)O; Orn = NCCC[C@H](N)C(=O)O; Abu = CC[C@H](N)C(=O)O
Below, each entry is listed with its recorded MIC P. aeruginosa ATCC 27853.
The reply should be a number in µg/mL, with the unit left off.

Below are worked cases with known answers.
>>> value_reported("CC[C@@H]1NC(=O)[C@@H]2CCCN2C(=O)[C@@H](CCCNC(=N)N)NC(=O)[C@H](CC(C)C)NC(=O)[C@H](CCCN)NC(=O)[C@H](C(C)C)NC(=O)[C@@H]2CCCN2C(=O)[C@@H](Cc2ccccc2)NC(=O)[C@H](CC(C)C)NC(=O)[C@H](CCCNC(=N)N)NC1=O [Peptide 17] (cyclo([Abu]RL[dF]PV[Orn]L[dR]P))")
64
>>> value_reported("CC(C)C[C@@H]1NC(=O)[C@H](CCCN)NC(=O)[C@H](C(C)C)NC(=O)[C@@H]2CCCN2C(=O)[C@@H](Cc2ccccc2)NC(=O)[C@H](CC(C)C)NC(=O)[C@H](CCCNC(=N)N)NC(=O)[C@H](C(C)C)NC(=O)[C@@H]2CCCN2C(=O)[C@@H](CCCNC(=N)N)NC1=O [Peptide 15] (cyclo(L[dF]PV[Orn]L[dR]PVR))")
32

q: Fill blank: measured MIC P. aeruginosa ATCC 27853 of the molecule CC(C)C[C@@H]1NC(=O)[C@H](CCCN)NC(=O)[C@H](C(C)(C)C)NC(=O)[C@@H]2CCCN2C(=O)[C@@H](Cc2ccccc2)NC(=O)[C@H](CC(C)C)NC(=O)[C@H](CCCN)NC(=O)[C@H](C(C)(C)C)NC(=O)[C@@H]2CCCN2C(=O)[C@@H](Cc2ccccc2)NC1=O [Peptide 13] (cyclo(L[dF]P[Tle][Orn]L[dF]P[Tle][Orn])) is ____.
a: 128
